system: UACC-257 melanoma; assay: NCI tumour cell line growth inhibition, 48 h
Task for the reader: assign each of the following compounds its reported TGI.

Query: Requested field: TGI. Item: `COc1ccc2c(c1)C(=O)c1c-2c(N(C)C)nc2ccccc12`
Reply: > 100 µM

Query: Requested field: TGI. Item: Cc1ccc(N2C(=O)C3C=CC(n4[nH]c(=O)n(Cc5ccccc5)c4=O)CC3C2=O)cc1 (stereo unspecified)
Reply: > 100 µM

Query: Requested field: TGI. Item: `O=S1(=O)OCCOS(=O)(=O)C1Cc1ccccc1`
Reply: > 100 µM

Query: Requested field: TGI. Item: `O=C(Nc1cccc(NC(=O)Nc2cc(C(F)(F)F)ccc2Cl)c1)Nc1cc(C(F)(F)F)ccc1Cl`
Reply: 41.4 µM

Query: Requested field: TGI. Item: `COc1ccc(C(=O)c2cc3c(N)c(C(=O)Nc4cccc5ccccc45)sc3nc2C)cc1`
Reply: > 50 µM

Provide TGI values for the following items, in order.
1. C[C@]12CCC3[C@@H](CC[C@@H]4c5nonc5CC[C@]34C)C1C/C(=N/O)C2=O (stereo partly specified)
2. COC(=O)C(Cc1ccccc1)NP(=O)(O)OCC1OC(n2cc(F)c(=O)[nH]c2=O)CC1O (stereo unspecified)
3. CCCC(=O)NC(Nc1ccc(S(=O)(=O)Nc2nc(C)cc(C)n2)cc1)(C(F)(F)F)C(F)(F)F
4. COC(=O)CCC(NC(=S)N/N=C/c1ccco1)C(=O)OC (stereo unspecified)
5. CC#CC(=O)SCCNC(=O)CC
6. COc1ccc(OC)c(-c2c(C#N)c(N)nc(N3CCOCC3)c2C#N)c1
7. Cc1c2c(nn1C)CSCc1cc(n(C)n1)CSc1cc(c3ccccc3c1)OCCCc1c(C(=O)O)n(C)c3c-2c(Cl)ccc13
8. Cc1c2c(n(CCc3ccc(Cl)cc3)c1C)NC(c1ccccc1)C(C#N)S2(=O)=O (stereo unspecified)

Reply:
> 100 µM
> 100 µM
> 100 µM
> 100 µM
> 10 µM
> 100 µM
16 µM
> 100 µM

Provide TGI values for the following items, in order.
1. O=C(Cn1c(C(=O)/C=C/c2cccs2)nc2ccccc21)c1ccc(Cl)cc1
2. CCOC(=O)c1c(N2CCCC2)ncn(Cc2ccccc2)c1=S
3. COc1ccc(C2N(NC(=O)c3ccncc3)C(=O)CS2(=O)=O)cc1F (stereo unspecified)
4. Nc1ncnc2c1nnn2C1CCC(CP(=O)(O)O)C1 (stereo unspecified)
5. OC(CCNCc1ccccc1)c1ccc2ccccc2c1 (stereo unspecified)
6. O=C(c1cc(Cl)ccc1Cl)N1CCN(C(=O)c2cc(Cl)ccc2Cl)CC1
7. Cc1cc(N2CCCC2)nc(N(CCNc2ccnc3cc(Cl)ccc23)Cc2ccco2)n1

Reply:
58.1 µM
> 100 µM
> 100 µM
> 100 µM
32.2 µM
> 100 µM
> 100 µM

Query: Requested field: TGI. Item: `NCCCN(CCCN)CCN(CCN(CCCN)CCCN)CCN(CCCN)CCCN`
Reply: > 100 µM

----------
test system: HOP-92 NSCLC; test: NCI tumour cell line growth inhibition, 48 h
Measurement Label: TGI (µM)
One number for each entry, in µM.

Provide TGI values for the following items, in order.
1. CCc1cccc(C)c1NC(=O)C(=O)Cc1nc2ccccc2s1
2. NC(=O)c1c(NC(=O)c2ccc3c(c2)OCO3)sc2c1CCC(=O)C2
3. O=c1c2cc(I)ccc2nc(-c2cccs2)n1-c1ccc(O)cc1
4. COc1cc(C(=O)NC2CCN(C)CC2)c(F)cc1Nc1ncc2c(n1)N(C1CCCC1)CC(F)(F)C(=O)N2C
5. C[C@H]1C[C@H]2[C@@H]3C(C)(C)O[C@]4(O)C(=O)[C@]5(O)[C@@H](C)CC[C@H]1[C@]25C(=O)[C@]34C
6. O=C(/C=C/c1ccc([N+](=O)[O-])cc1)c1ccc2c3c(cccc13)CC2
7. O=C1C(=O)c2ccccc2C(O)=C1CCCc1ccc(Oc2ccccc2)cc1

Reply:
1. 5.88
2. 5.91
3. 26.9
4. 0.391
5. 62.7
6. 15.4
7. 49.5

Query: Requested field: TGI. Item: `COc1cc(/C=C2\Sc3scc(-c4cccc([N+](=O)[O-])c4)[n+]3C2=O)cc(OC)c1OC`
Reply: 73.9

----------
system: CAKI-1 renal; assay: NCI tumour cell line growth inhibition, 48 h; in the data active means GI50 below about 0.43 µM; inactive means the rest
Mark one answer only. Choices: 1 (active), 0 (inactive)

For orientation, consider the following solved cases.
Query: Hey, what did the test say about `CC[C@H](CO)Nc1nc(NCc2ccccc2)n2ncc(C(C)C)c2n1` ?
Reply: 0

Query: Hey, what did the test say about `CC1(C)[C@@H](OC(N)=O)[C@H]2O[C@H]2[C@]2(CO)[C@H]3CC[C@]4(C)[C@@H](c5ccc(=O)oc5)[C@@H](Cl)C[C@]4(O)C3=CC[C@@H]12` ?
Reply: 1

Query: Hey, what did the test say about `O=C(Nc1ccc(Cl)cc1)Nc1ccc(Nc2nncc3ccccc23)cc1` ?
Reply: 0

Next compound, please.
Query: Hey, what did the test say about COc1ccc(/C=C2\CCCC3=C2NC(N)=NC3c2ccc(OC)c(OC)c2)cc1OC (centres undefined) ?
Reply: 0

----------
system: SK-MEL-28 melanoma; experiment: NCI tumour cell line growth inhibition, 48 h
Measurement Label: TGI

Query: Requested field: TGI. Item: `CC1(C)CC(=O)c2c(nc3ccc4ccccc4c3c2-c2ccc(NC(=O)CCCCCCCCC(=O)Nc3ccc(-c4c5c(nc6ccc7ccccc7c46)CC(C)(C)CC5=O)cc3)cc2)C1`
Reply: > 100 µM

Query: Requested field: TGI. Item: C/C=C(/C)C(=O)O[C@H](C[C@@H](C)[C@H]1CC(c2ccoc2)OC1=O)[C@@]1(C)C(=O)CCC2O[C@]21C (stereo not given in full)
Reply: > 100 µM

Query: Requested field: TGI. Item: `O=C(Cn1c(C(=O)/C=C/c2cccs2)nc2ccccc21)c1ccc(Cl)cc1`
Reply: > 100 µM

Provide TGI values for the following items, in order.
1. O=C(Nc1ccc(Cl)cc1)Nc1ccc(Nc2nncc3ccccc23)cc1
2. Cc1cc(Cl)ccc1NC(=O)CC/C(CC(=O)C(C)C)=N\NC(=O)C[n+]1ccccc1

Reply:
1: 12.8 µM; 2: > 100 µM

----------
test system: HCT-15 colon; assay: NCI tumour cell line growth inhibition, 48 h; in the data active means GI50 below about 0.43 µM; inactive means the rest
Mark one answer only. Choices: 1 (yes) (active), 0 (no) (inactive)

For orientation, consider the following solved cases.
Query: Hey, what did the test say about `CCCCN(CCCC)c1ccc(C(=N)c2ccc(N(CCCC)CCCC)cc2)cc1` ?
Reply: 1 (yes)

Query: Hey, what did the test say about `COc1ccc(C(=O)c2cc3c(N)c(C(=O)Nc4cccc5ccccc45)sc3nc2C)cc1` ?
Reply: 1 (yes)

Query: Hey, what did the test say about `COc1ccc(/C=C\c2cc(OC)c(OC)c(OC)c2)cc1OC` ?
Reply: 1 (yes)

Query: Hey, what did the test say about `C/C=C(\C)C(=O)O[C@H]1C=CC(=O)O[C@@H]1CC[C@H](O)[C@H](C)O` ?
Reply: 0 (no)

Query: Hey, what did the test say about `Cc1c2c(nn1C)CSCc1cc(n(C)n1)CSc1cc(c3ccccc3c1)OCCCc1c(C(=O)O)n(C)c3c-2c(Cl)ccc13` ?
Reply: 0 (no)

***
Query: Hey, what did the test say about `O=C(/C=C/c1ccc([N+](=O)[O-])cc1)c1ccc2c3c(cccc13)CC2` ?
Reply: 0 (no)

Query: Hey, what did the test say about `CC(C)(O)CC(=O)NCCn1ccc2ncnc(Nc3ccc(Oc4cccc(C(F)(F)F)c4)c(Cl)c3)c21` ?
Reply: 0 (no)

Query: Hey, what did the test say about `CCN(CC)Cc1ccc(Nc2nccc(-c3cnn4ncccc34)n2)cc1` ?
Reply: 1 (yes)

Query: Hey, what did the test say about `CC[C@H](CO)Nc1nc(NCc2ccccc2)n2ncc(C(C)C)c2n1` ?
Reply: 0 (no)

----------
test system: KM12 colon; assay: NCI tumour cell line growth inhibition, 48 h
Measurement Label: TGI

Record excerpt, results attached:
Query: Requested field: TGI. Item: `COC(=O)c1c(OC(C)=O)ccc2c1c1c(n2C)C(=O)c2ccccc2C1=O`
Reply: 86.4 µM

Query: Requested field: TGI. Item: `O=c1cc(N2CCN(c3cc(=O)n4ccccc4n3)CC2)oc2ccccc12`
Reply: > 68.5 µM

Provide TGI values for the following items, in order.
1. COc1ccc(C)cc1Nc1nnc(-c2ccccc2N)s1
2. Cc1[nH]c2ccccc2c1C1Cc2ccccc2N1C(=O)/C=C/C(=O)O (centres undefined)
3. O=C(O)c1nc(-c2ccccc2)[nH]c1C(=O)O
4. CCCCCC(C)SC1(C(=O)OC)CC(OC(C)=O)C(NC(C)=O)C([C@H](OC(C)=O)[C@@H](COC(C)=O)OC(C)=O)O1 (some centres undefined)
5. COc1ccc(C2=NN(c3ccccc3)C[N+](c3ccc(OC)cc3)=N2)cc1
6. Cc1ccc(N2C(=O)C3C=CC(n4[nH]c(=O)n(Cc5ccccc5)c4=O)CC3C2=O)cc1 (centres undefined)
7. CCCCCCCCCCCCCCCCCCNc1ccn(C2OC(COP(=O)(O)OCC3OC(n4cc(F)c(NCCCCCCCCCCCCCCCCCC)nc4=O)CC3O)C(O)C2O)c(=O)n1 (centres undefined)

Reply:
1. > 100 µM
2. > 100 µM
3. 14.6 µM
4. > 100 µM
5. 54.7 µM
6. > 100 µM
7. > 100 µM
